Data provenance is the RNAGym collection of RNA variant scans (doi:10.1073/pnas.2313332121).

B1: TPR t1 (parent)
chain: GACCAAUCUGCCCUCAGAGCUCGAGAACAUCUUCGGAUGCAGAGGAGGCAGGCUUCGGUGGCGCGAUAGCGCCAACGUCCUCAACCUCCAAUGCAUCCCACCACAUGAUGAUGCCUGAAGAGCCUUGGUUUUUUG

Variants of: B1
Experiment: polymerase ribozyme fitness, log enrichment relative to wild type (log ratio); higher = more active; in vitro selection for triplet polymerase activity
Decide by polymerase ribozyme fitness (log ratio): equal to or exceeding -2 means criterion met, less means criterion not met.

q: Hi, just wondering whether GACCAAUCUGCCCUCAGAGCCAGAGAACAUCUUCGGAUGCAGCGGAGGCAGGCUUCGGUGGCGCGAUAGCGCCAACGUCCUCAACCUCCAAUGCAUCCCACCACAUGAUGAUGCCUGAAGAGCCUUGGUUUUUUG [U21C C22A A43C] shows polymerase ribozyme fitness (log ratio) of -2 or higher.
a: criterion not met

q: Hi, just wondering whether GACCAAUCUGCCCUCAGAGCUCGAGAACAUCUUCGGAUGCAGAGGAGGCAGGCUUCGGUGGCGCGAUAGCGCCAACGUCCUUAACCUCCAAUGCAUCCCACCACAUGAUGAUGCCUGAAUAGCCUUGGUUUUUUG [C82U G120U] shows polymerase ribozyme fitness (log ratio) of -2 or higher.
a: criterion met

q: Hi, just wondering whether GACCAAUCUGCCAUCAGAGCUCGAGAACAUCUUCGGAUGCAGAGUAGGCAGGCUUCGGUGGCGCGAUAUCGCCAACGUCCUCAACCUCCAAUGCAUCCCACCACAUGAUGAUGCCUGAAGAGCCUUGGUUUUUUG [C13A G45U G69U] shows polymerase ribozyme fitness (log ratio) of -2 or higher.
a: criterion met

q: Hi, just wondering whether GACCAAUCUGCCCUCAGAGCUCGAGAACAUCUUCGGAUGCAGAGGAGGCAGGCUUCGGUGUCGCGAUAGCGCCAACGUCCUCAACCUCCAAUGCAUCCAACCACAUGAUGAUGCCUGAAGAGCCUUGGUUUUUUG [G61U C99A] shows polymerase ribozyme fitness (log ratio) of -2 or higher.
a: criterion not met

q: Hi, just wondering whether GACCAAUCUGCCCUCAGAGCUCGAGAACAUCUUCGGAUGCAGAGGUGGCAGGCUUCGGUGGCGCGAUAGCGCCAACGUCCUAAACCUCCAAUGCAUCCCACCACAUGAUGAUGCCUGAAGAGCCUUGGUUUUUUG [A46U C82A] shows polymerase ribozyme fitness (log ratio) of -2 or higher.
a: criterion met

q: Hi, just wondering whether GACCAAUCUGCCCUCAGAGCUCGAGAACAUCUUCGGAUGUAGAGGAGGCAGGCUUCGGUGGCGCGAUUACGCCAACGUCCUCAACCUUCAAUACAUCCCACCACAUGAUGAUGCCUGAAGAGCCUUGGUUUUAUG [C40U A68U G69A C88U G93A U133A] shows polymerase ribozyme fitness (log ratio) of -2 or higher.
a: criterion not met

q: Hi, just wondering whether GACCAUUCUGCCCUCAGAGCUCGAGAACAUCUUCGGAUGCAGAGGAGGCAGGCUUCGCUGGCUAGAUAGCGCCAACGUCCUCAACCUCCAAUGCAUCCCACCACAUGAUGAUGCCUGAUGAGCCUUGGUUUUUUG [A6U G58C G63U C64A A119U] shows polymerase ribozyme fitness (log ratio) of -2 or higher.
a: criterion not met

q: Hi, just wondering whether GACCAAUCUGCCCUCAGAGCUCGAGAACAUCUUCGGAUGCAGAGGAGGCAGGCUUCGGUGGCGCGAUAUCGUCAACGUCCUCAACCUCCAAUGCAUCCCACCACAUGAUGAUGCCUAAAGAGCCUUGGUUUUUUG [G69U C72U G117A] shows polymerase ribozyme fitness (log ratio) of -2 or higher.
a: criterion met

q: Hi, just wondering whether GACCAAUCUGCCCUCAGAGCUCGAGAACAUCUUCGGACGCAGAGAAGGCAGGCAUCGGUGGCGCGAUAGCGCCAACGUCCUCCACCUCCAAUGCAUCCCACCACAUGAUGAUGCCUGAAUAGCCUUGGUUUUUUG [U38C G45A U54A A83C G120U] shows polymerase ribozyme fitness (log ratio) of -2 or higher.
a: criterion met

q: Hi, just wondering whether GACCAAUCUGCCCUCGGAGCUCGAGAACAUCUUCGGAUGCAGAGGAGGCAGGGUUCGGUGGCGCGAUAGCGCCAACGUCCUCAACCGCCAAUGCAACCCACCACAUGAUGAAGCCUGAAGAGCCUUGGUUUUUUG [A16G C53G U87G U96A U112A] shows polymerase ribozyme fitness (log ratio) of -2 or higher.
a: criterion met
